# reported IC50; entries follow
# target.system: human mAChR M4 (Homo sapiens, UniProt P08173)
# Construct: expressed in transfected cells; host or cells: CHO-K1 (ATCC), stably co-expressing chimeric G protein Gqi5
# assay.text: mAChR M4 cell-based functional assay (calcium mobilization, EC80 acetylcholine), human M4
# assay.conditions: Table 9; M4/Gqi5/CHO-K1 cells, decrease of EC80 acetylcholine response

Cc1nn(C)cc1-c1ccc(O[C@@H]2C[C@@H]3CN(CC4CC5C=CC4C5)C[C@@H]3C2)nn1 (stereo partly shown) [Compound 47]: 94.5 nM
CC(C)(C)CCN1C[C@H]2C[C@@H](Oc3ccc(-c4cc(F)ccc4Cl)nn3)C[C@H]2C1 [Compound 54]: 222 nM
Cc1nn(C)cc1-c1ccc(N[C@H]2C[C@@H]3CN(Cc4ccccc4F)C[C@@H]3C2)nn1 [compound 10]: 41 nM

We next turn to a different molecule, shown below.
Form field: reported IC50 of Cc1cccnc1CN1C[C@H]2CC(COc3ccc(-c4cn(C)nc4C)nn3)C[C@H]2C1 (stereo partly shown) [Compound 104]
1530 nM

----------
# target.system: human mAChR M4 (Homo sapiens, UniProt P08173)
# Construct: expressed in transfected cells; host or cells: CHO-K1 (ATCC), stably co-expressing chimeric G protein Gqi5
# Sequence (P08173 1-479): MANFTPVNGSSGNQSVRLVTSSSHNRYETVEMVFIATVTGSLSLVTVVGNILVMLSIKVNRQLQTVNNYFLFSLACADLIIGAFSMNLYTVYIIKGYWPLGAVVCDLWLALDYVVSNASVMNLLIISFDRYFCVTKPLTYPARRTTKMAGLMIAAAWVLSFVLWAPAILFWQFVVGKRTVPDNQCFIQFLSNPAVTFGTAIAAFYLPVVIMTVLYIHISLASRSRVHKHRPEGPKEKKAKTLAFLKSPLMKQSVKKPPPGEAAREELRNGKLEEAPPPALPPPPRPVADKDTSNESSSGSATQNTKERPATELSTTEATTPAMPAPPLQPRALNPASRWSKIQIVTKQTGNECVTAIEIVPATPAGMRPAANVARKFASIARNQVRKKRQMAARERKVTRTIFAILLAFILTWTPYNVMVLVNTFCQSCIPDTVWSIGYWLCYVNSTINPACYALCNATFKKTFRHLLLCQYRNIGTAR
# assay.text: mAChR M4 cell-based functional assay (calcium mobilization, EC80 acetylcholine), human M4
# assay.conditions: Table 10; M4/Gqi5/CHO-K1 cells, decrease of EC80 acetylcholine response
property.name: IC50 (nM)
Form entry: value (nM) — number only.

c1cc(N2CCOCC2)nnc1N[C@H]1C[C@@H]2CN(CC3CCOCC3)C[C@@H]2C1: 13.4

From here, focus on the item given below.
Which IC50 value is on record for Cc1nn(C)cc1-c1cnc(N[C@H]2C[C@@H]3CN(CC45CC6CC(CC(C6)C4)C5)C[C@@H]3C2)cn1 ?
15.9

----------
# target.system: human mAChR M4 (Homo sapiens, UniProt P08173)
# Construct: expressed in transfected cells; host or cells: CHO-K1 (ATCC), stably co-expressing chimeric G protein Gqi5
# assay.text: mAChR M4 cell-based functional assay (calcium mobilization, EC80 acetylcholine), human M4
# assay.conditions: Table 10; M4/Gqi5/CHO-K1 cells, decrease of EC80 acetylcholine response
property.name: log10(IC50) (log10 of the value in nM)
Friendly reminder: values = log10 of IC50, unit nM.

Consider the reported log10(IC50) for these molecules:
Cc1noc(C)c1-c1ccc(N[C@H]2C[C@@H]3CN(CC4CCOCC4)C[C@@H]3C2)nn1: 1.74
Cc1nn(C)cc1-c1ccc(N[C@H]2C[C@@H]3CN(CC4CCOCC4)C[C@@H]3C2)nc1: 3.20
Fc1cccc(Cl)c1-c1ccc(N[C@H]2C[C@@H]3CN(CC4CCOCC4)C[C@@H]3C2)nn1: -0.36

For CC(=O)Nc1ccc(-c2ccc(N[C@H]3C[C@@H]4CN(CCC(C)(C)C)C[C@@H]4C3)c(F)c2F)cc1 , what is its reported log10(IC50)?
3.00

Look up log10(IC50) for this molecule: CC1(C)CC(CN2C[C@H]3C[C@H](Nc4ccc(-c5cc(F)ccc5Cl)nn4)C[C@H]3C2)CCO1 (stereo partly shown)
0.52

What does the record list as log10(IC50) for Fc1ccc(Cl)c(-c2ccc(N[C@H]3C[C@@H]4CN(Cc5ccc6c(c5)OCO6)C[C@@H]4C3)nn2)c1 ?
0.79

----------
# target.system: human mAChR M4 (Homo sapiens)
# Construct: expressed in transfected cells; host or cells: CHO-K1 (ATCC), stably co-expressing chimeric G protein Gqi5
# Sequence (P08173 1-479): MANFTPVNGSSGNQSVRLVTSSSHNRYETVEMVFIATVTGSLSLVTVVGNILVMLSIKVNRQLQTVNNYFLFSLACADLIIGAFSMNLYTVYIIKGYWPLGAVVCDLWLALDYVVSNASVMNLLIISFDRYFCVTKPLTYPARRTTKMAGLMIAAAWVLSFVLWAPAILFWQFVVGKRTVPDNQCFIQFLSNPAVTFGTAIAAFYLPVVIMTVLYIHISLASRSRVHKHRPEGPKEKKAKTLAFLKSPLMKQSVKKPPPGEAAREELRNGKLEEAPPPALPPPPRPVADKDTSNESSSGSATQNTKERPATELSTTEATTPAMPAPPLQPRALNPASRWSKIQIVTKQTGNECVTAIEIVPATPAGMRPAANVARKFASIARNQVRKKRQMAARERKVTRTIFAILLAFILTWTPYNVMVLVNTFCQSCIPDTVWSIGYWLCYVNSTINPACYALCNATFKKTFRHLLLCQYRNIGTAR
# assay.text: mAChR M4 cell-based functional assay (calcium mobilization, EC80 acetylcholine), human M4
# assay.conditions: Table 10
property.name: Human M4 Emin (%)
Just the number please, in %, no unit attached.

Fc1cccc(-c2ccc(N[C@H]3C[C@@H]4CN(CC5CCOCC5)C[C@@H]4C3)nn2)c1Cl: 5
c1cn2cc(-c3ccc(N[C@H]4C[C@@H]5CN(CC6CCOCC6)C[C@@H]5C4)nn3)ccc2n1: 7
c1ccc(-c2cnc(N[C@H]3C[C@@H]4CN(CC5CCOCC5)C[C@@H]4C3)s2)cc1: 41
c1ccc(-c2ccc(N[C@H]3C[C@@H]4CN(CC5CCOCC5)C[C@@H]4C3)nn2)cc1: 9
CC(=O)Nc1ccc(-c2cnc(N[C@H]3C[C@@H]4CN(CC5CCOCC5)C[C@@H]4C3)cn2)cc1: 10

As a next step, examine the compound that follows.
Provide the documented Human M4 Emin with human mAChR M4 (Homo sapiens) as the system for CC(=O)Nc1ccc(-c2ccc(O[C@H]3C[C@@H]4CN(CCC(C)(C)C)C[C@@H]4C3)nn2)cc1
4

----------
# target.system: human mAChR M4 (Homo sapiens)
# Construct: expressed in transfected cells; host or cells: CHO-K1 (ATCC), stably co-expressing chimeric G protein Gqi5
# Sequence (P08173 1-479): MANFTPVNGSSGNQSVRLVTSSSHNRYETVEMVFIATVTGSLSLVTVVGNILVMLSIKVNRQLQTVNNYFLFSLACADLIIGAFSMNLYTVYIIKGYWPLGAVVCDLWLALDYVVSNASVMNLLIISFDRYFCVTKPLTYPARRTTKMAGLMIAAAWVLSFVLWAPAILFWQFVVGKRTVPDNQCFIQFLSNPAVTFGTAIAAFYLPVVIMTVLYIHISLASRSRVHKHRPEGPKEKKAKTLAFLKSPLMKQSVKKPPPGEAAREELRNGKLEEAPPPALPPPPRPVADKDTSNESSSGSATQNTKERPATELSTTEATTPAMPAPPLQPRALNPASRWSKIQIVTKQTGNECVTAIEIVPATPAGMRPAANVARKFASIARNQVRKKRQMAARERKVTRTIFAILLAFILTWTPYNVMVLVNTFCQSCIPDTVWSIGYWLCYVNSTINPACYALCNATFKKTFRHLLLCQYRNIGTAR
# assay.text: mAChR M4 cell-based functional assay (calcium mobilization, EC80 acetylcholine), human M4
# assay.conditions: Table 9; human M4; % ACh maximum at 30 μM
So basically, if Emin comes in under 10% it's label 1, and if it's 10% or more it's label 0.

Observe how each entry below is paired with its result.
Cc1cccnc1CN1C[C@H]2C[C@@H](Oc3ccc(-c4cn(C)nc4C)nn3)C[C@H]2C1: label 0
Cc1nn(C)cc1-c1ccc(N[C@@H]2C[C@@H]3CN(CCC(C)(C)C)C[C@@H]3C2)c(F)c1F: label 1
Cc1cnn(C)c1-c1ccc(OCC2C[C@@H]3CN(CC4CCOCC4)C[C@@H]3C2)nn1 (stereo partly shown): label 0
Cc1cnn(C)c1-c1ccc(N[C@H]2C[C@@H]3CN(CC4CC5C=CC4C5)C[C@@H]3C2)nn1 (stereo partly shown): label 1
Cc1cnn(C)c1-c1ccc(OCC2C[C@@H]3CN(Cc4ccc5c(c4)OCO5)C[C@@H]3C2)nn1 (stereo partly shown): label 1

State whether 10% exceeds Emin recorded for Cc1nn(C)cc1-c1ccc(OCC2C[C@@H]3CN(Cc4ccccc4F)C[C@@H]3C2)nn1 (stereo partly shown) .
label 1

# strict comparison: is reported Emin < 10%? input = Cc1cnn(C)c1-c1ccc(N[C@H]2C[C@@H]3CN(CCC(C)(C)C)C[C@@H]3C2)nn1
label 0
